- Test System: human JAK1 kinase domain (Homo sapiens, UniProt P23458)
- Sequence (P23458 850-1154): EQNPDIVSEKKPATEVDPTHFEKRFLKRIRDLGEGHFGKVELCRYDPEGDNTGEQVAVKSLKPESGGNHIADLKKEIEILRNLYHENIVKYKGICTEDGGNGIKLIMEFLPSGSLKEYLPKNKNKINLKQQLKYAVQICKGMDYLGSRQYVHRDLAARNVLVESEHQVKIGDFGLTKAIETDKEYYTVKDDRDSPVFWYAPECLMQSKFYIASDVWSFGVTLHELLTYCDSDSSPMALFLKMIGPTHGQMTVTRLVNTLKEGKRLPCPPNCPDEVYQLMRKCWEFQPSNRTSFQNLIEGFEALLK
pIC50: −log10 of the molar value.
Catalogue of compounds with associated pIC50
Measured Property: pIC50

compound=O[C@]12CC3C[C@H](C1)[C@H](n1ccc4cnc5[nH]ccc5c41)[C@@H](C3)C2 result_value=8.21
compound="C[C@@H]1CCN(c2cnc(C#N)cn2)C[C@@H]1n1ccc2cnc3[nH]ccc3c21 (racemic)" result_value=8.10
compound=C[C@@H]1CCN(C(=O)CC#N)C[C@@H]1n1ccc2cnc3[nH]ccc3c21 result_value=9.31
compound=C[C@@H]1CCN(C(=O)CC#N)C[C@@H]1n1ccc2cnc3[nH]cc(C#N)c3c21 result_value=8.49
